// data source = the supplement of paper PMC8728848

Provide the reported glycan array binding signal (z-score) of each item.
molecular target: Gal(b1-4)GlcNAc(b1-3)Gal(b1-4)GlcNAc(b1-3)[Gal(b1-4)GlcNAc(b1-3)Gal(b1-4)GlcNAc(b1-6)]GalNAc; test: glycan array binding signal (z-score within array); higher = stronger binding; settings: glycan notation: IUPAC condensed, linker removed
Many of the other results were omitted from the sample, so the strongest signals are more common in it than they were.
One number for each entry.

| binder | glycan array binding signal (z-score) |
| --- | --- |
| ECA (Erythrina cristagalli), P83410 (protein) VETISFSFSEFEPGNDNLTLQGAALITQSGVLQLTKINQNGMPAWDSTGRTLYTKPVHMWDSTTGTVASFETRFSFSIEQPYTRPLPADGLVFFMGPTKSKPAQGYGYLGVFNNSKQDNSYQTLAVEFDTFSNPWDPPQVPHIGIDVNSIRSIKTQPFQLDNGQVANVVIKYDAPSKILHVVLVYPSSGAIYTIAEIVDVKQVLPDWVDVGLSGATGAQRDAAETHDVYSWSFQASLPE | 4.2 |

# ---- query binder ----
Which value of glycan array binding signal (z-score) has been reported for EULS2 M2 (Oryza sativa) (protein) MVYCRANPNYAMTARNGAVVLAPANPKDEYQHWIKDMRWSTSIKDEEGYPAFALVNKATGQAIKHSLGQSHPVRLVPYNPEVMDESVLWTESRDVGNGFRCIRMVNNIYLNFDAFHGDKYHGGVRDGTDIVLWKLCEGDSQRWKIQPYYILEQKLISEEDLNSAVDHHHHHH in the records? -0.129
